The entries below are paired with their reported MIC.
- System: Streptococcus sp. 80
- protocolDescription: in vitro tube dilution test (MIC)
- Type: cell-based
- reportedConditions: Streptococcus sp. 80, tube dilution; read-out: MIC
Your answer is read as µg/mL, so omit the unit and give the number.

Request: Give recorded MIC with Streptococcus sp. 80 for the following compound: NC(=O)c1cn(CCCO)nc1[N+](=O)[O-] [Compound 62]
Response: 50

Request: Form field: MIC recorded for N#Cc1cn(CCCl)nc1[N+](=O)[O-] [Compound 33] with Streptococcus sp. 80 (enter value)
Response: 100

* * *

Reported MIC is given for each of the following compounds.
- Test system: Staphylococcus aureus sp. 1130
- protocolDescription: in vitro tube dilution test (MIC)
- Assay type: cell-based
- reportedConditions: Staphylococcus aureus sp. 1130, tube dilution; read-out: MIC
Express the result in µg/mL but write the number alone.

# compound, unitInfo, reportedResult
rows = [
    ("CCCCCCCCCn1cc(C(N)=O)c([N+](=O)[O-])n1 [Compound 48, 3-nitro-1-nonyl-4-pyrazolecarboxamide]", "µg/mL", 25),
]

Request: What MIC value was documented for this compound, CCS(=O)(=O)CCn1cc(C(N)=O)c([N+](=O)[O-])n1 [Compound 35] ?
Response: 3.12

Request: Entry Cn1cc(C(N)=O)c([N+](=O)[O-])n1 [Compound 3, 1-methyl-3-nitro-4-pyrazolecarboxamide] has what MIC?
Response: 12.5

Request: Which MIC reading was recorded for the compound Cn1cc(-c2nnc(N)s2)c([N+](=O)[O-])n1 [Compound 102] ?
Response: 6.25
